Values from ChEMBL document CHEMBL5053492

- TGT: Nuclear receptor ROR-gamma (Homo sapiens, UniProt P51449)
- Sequence (P51449 whole entry, the tested form may be a part): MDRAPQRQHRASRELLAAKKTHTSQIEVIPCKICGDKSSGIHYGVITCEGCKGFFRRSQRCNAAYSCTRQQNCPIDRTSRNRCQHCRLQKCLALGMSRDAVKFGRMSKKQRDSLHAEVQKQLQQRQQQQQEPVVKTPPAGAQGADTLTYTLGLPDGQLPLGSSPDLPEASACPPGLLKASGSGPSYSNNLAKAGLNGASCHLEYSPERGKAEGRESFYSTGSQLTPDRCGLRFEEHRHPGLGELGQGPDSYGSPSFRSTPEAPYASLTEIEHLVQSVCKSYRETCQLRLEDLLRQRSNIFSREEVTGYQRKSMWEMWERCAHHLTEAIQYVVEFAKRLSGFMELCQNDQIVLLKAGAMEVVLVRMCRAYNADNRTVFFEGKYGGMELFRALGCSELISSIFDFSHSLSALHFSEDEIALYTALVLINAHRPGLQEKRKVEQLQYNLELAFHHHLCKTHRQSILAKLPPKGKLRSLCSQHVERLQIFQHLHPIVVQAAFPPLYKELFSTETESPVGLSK
- PROTOCOL: Agonist activity at APC-labeled RORgammat LBD (unknown origin) incubated for 1 hr in presence of europium labeled co-activator SRC1 by dual FRET assay
Task for the reader: assign each of the following compounds its reported pEC50.
Give bare numbers, as −log10 of the molar value.

Here are 4 compounds together with their reported answers.
chemical_string=CCCN(Cc1ccccc1)Cc1ccc(NC(=O)Cc2ccc(S(C)(=O)=O)cc2)cc1 measured_result=7.37
chemical_string=CCCN(Cc1ccccc1)Cc1c(Cl)cc(NC(=O)Cc2ccc(S(=O)(=O)CC)cc2)cc1Cl measured_result=8.09
chemical_string=CCS(=O)(=O)c1ccc(CC(=O)Nc2ccc(CN(Cc3ccccc3)CC3CC3)cc2)cc1 measured_result=7.85
chemical_string=CCCN(Cc1ccccc1)Cc1ccc(NC(=O)Cc2ccc(C#N)cc2)cc1 measured_result=6.46

For the 5 compounds below, give their pEC50 values.
1. CCCN(Cc1ccc(Cl)cc1)Cc1ccc(NC(=O)Cc2ccc(S(=O)(=O)CC)cc2)cc1
2. CCCN(Cc1ccccc1)Cc1ccc(NC(=O)Cc2ccccc2)cc1
3. CCCN(Cc1ccccc1)Cc1ccc(C(=O)NCc2ccc(S(=O)(=O)CC)cc2)cc1
4. CCS(=O)(=O)c1ccc(CC(=O)Nc2ccc(CN(C)Cc3ccccc3)cc2)cc1
5. CCCN(Cc1ccccc1)Cc1ccc(NCCc2ccc(S(=O)(=O)CC)cc2)cc1

1: 7.77; 2: 5.66; 3: 8.04; 4: 7.00; 5: 7.47
